This listing pairs variants with measured protein stability index.
B1: HESX1 (parent)
chain: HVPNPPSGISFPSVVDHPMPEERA

Variants of: B1
Assay: protein stability index of a GFP-peptide fusion (GPS, HEK-293T) (PSI 1-6); higher = more stable;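 also: lentivirally expressed fusions sorted by FACS into six bins by GFP to DsRed ratio, PSI derived from sequencing read proportions per bin multiplied by bin number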
Details: c terminus: a fixed tail appended

Past entries and their recorded results:
V15P = 3.06
S10T = 2.97
I9A = 3.04

stdin: Which value of protein stability index has been reported for P3K in the records?
stdout: 2.99

stdin: Which value of protein stability index has been reported for A24E in the records?
stdout: 2.95

stdin: Which value of protein stability index has been reported for I9N in the records?
stdout: 3.31

stdin: Which value of protein stability index has been reported for H17L in the records?
stdout: 2.39
